- Assay overview: in vitro
- Assay conditions: human, hek293t cells
// NB: equality with 80% counts as not met; only viability at 48 h, 25 µM strictly below is met

Dear reviewer, please state whether C=CC(=O)N(CC)CC(=O)N1CCNC(=O)C1c1cccs1 (stereo not shown) [3-G07] has viability at 48 h, 25 µM strictly beneath 80%. met

Problem: For the compound O=C(CCl)N(Cc1ccc(F)cc1)C1CCCCC1 [4-I13] , is viability at 48 h, 25 µM under 80%? met

Is the reported viability at 48 h, 25 µM for CC(Cl)C(=O)NCc1ncn(Cc2cccc(F)c2)n1 (stereo not shown) [7-K03] strictly below 80%? not met

----------
- Assay overview: in vitro
- Assay conditions: human, hek293t cells
Measured viability at 48 h, 25 µM, listed per entry.

For the compound shown here, CC(Cl)C(=O)NCC1CN(S(C)(=O)=O)C1 (stereo not drawn) , give the reported viability at 48 h, 25 µM. 118%

Could you tell me which viability at 48 h, 25 µM is on file for COCC1(NC(=O)C(C)Cl)CC=CCC1 (stereo not drawn) ? 107%

----------
Measured viability at 48 h, 25 µM of individual entries
- Assay overview: in vitro
- Assay conditions: human, hek293t cells
Field format: number, assumed %, no unit text.

O=C(CCl)NCCOc1ccc(F)cc1 ... 1.34

--- query ---
Param item = CC(Cl)C(=O)NC1CCCN(S(=O)(=O)N2CCOCC2)C1 (centres unmarked) ; retrieve measured viability at 48 h, 25 µM. 111

----------
- Assay overview: in vitro
- Assay conditions: human, hek293t cells
Test readout: viability at 48 h, 25 µM
Please make sure the unit comes right after the number.

Record request: viability at 48 h, 25 µM value, item C=CC(=O)NC1(C(N)=O)Cc2ccccc2C1 [2-D15] 69.7%

Consider the molecule N#CC(=Cc1cccc(F)c1)C(=O)Nc1ccc(SC(F)F)cc1 [9-N17] and give its measured viability at 48 h, 25 µM. 103%

Item C=CC(=O)N1CCC(n2cc(CO)nn2)C1 (stereo not shown) [2-E08] has what recorded viability at 48 h, 25 µM? 81.8%

What viability at 48 h, 25 µM value was documented for this molecule, COc1ccc(-n2c(C)cc(C(=O)CCl)c2C)cc1 [10-I12] ? 0.472%

Quick one: viability at 48 h, 25 µM for CCc1cnc(N2CCN(C(=O)C(C)Cl)CC2)s1 (stereo not shown) [7-C20] ? 79.5%

Item C=CCNC(=O)C(C#N)=Cc1c(C)nn(-c2ccc(F)cc2)c1Cl [9-L07] has what recorded viability at 48 h, 25 µM? 91.8%

Quick one: viability at 48 h, 25 µM for Cc1cc(C(=O)CCl)c(C)n1-c1cccc(Cl)c1 [10-N18] ? 0.68%

What does the record list as viability at 48 h, 25 µM for O=C(CCl)NCC1(c2ccc3c(c2)OCCO3)CCCC1 [4-I11] ? 0.867%

Fill in: viability at 48 h, 25 µM of Cc1csc(C(C#N)C(=O)CCl)n1 (stereo not shown) [10-D12] is ___ 6.6%

Query: viability at 48 h, 25 µM; subject: CC(Cl)C(=O)Nc1ccc(NC(=O)c2cccs2)cc1 (stereo not shown) [6-G07] 101%

Need viability at 48 h, 25 µM of C=CC(=O)N[C@@H](C)c1ccccc1OC [1-K06] , thanks. 84.3%

Name the recorded viability at 48 h, 25 µM for O=C(CCl)NCCOc1cccc(Cl)c1 [6-G05] . 107%

Please give the measured viability at 48 h, 25 µM for this molecule: CN(CC(=O)Nc1ccc(F)cc1)C(=O)CCl [4-B05] 0.41%

Reported viability at 48 h, 25 µM, molecule CS(=O)(=O)N1CCCc2cc(C(=O)CCl)ccc21 [10-H19] : ____ 72%

State the recorded viability at 48 h, 25 µM for this entry: Cc1cccc(C)c1NC(=O)CCl [5-P20, 2-chloro-N-(2,6-dimethylphenyl)acetamide] 112%

Quick one: viability at 48 h, 25 µM for CC(Cl)C(=O)c1ccc2c(c1)NC(=O)CO2 (stereo not shown) [10-P12] ? 105%

What measured viability at 48 h, 25 µM goes with CC(C)c1cccc(C(C)C)c1NC(=O)CCl [5-G13] ? 37.8%

Find the recorded viability at 48 h, 25 µM belonging to N#CC(=Cc1ccccc1)C(=O)NC1CCCCCCC1 [8-G17] and report it. 46.6%

// returns reported viability at 48 h, 25 µM for input N#C/C(C(=O)Nc1ccc(C(F)(F)F)cc1)=C(/O)C1CC1 [9-N22] 82.6%

Endpoint output: viability at 48 h, 25 µM of O=C(CCl)NCC1CCCCC1 [5-J06, 2-chloro-N-(cyclohexylmethyl)acetamide] . Value? 52.1%

----------
- Assay overview: in vitro
- Assay conditions: human, hek293t cells
Test readout: viability at 48 h, 25 µM
Answer shape: numeric part, then the unit.

I am curious: what viability at 48 h, 25 µM value has been reported for O=C(CCl)N1CCC(C2CCCN(C(=O)C(F)(F)F)C2)CC1 (centres unmarked) [5-E20] ? 1.17%

Field request: viability at 48 h, 25 µM | item: C=CC(=O)NC1CCC(n2c(C)ccc2C)CC1 (centres unmarked) [2-E19] 71.1%

Look up viability at 48 h, 25 µM for this compound: CC(Cl)C(=O)Nc1nc(-c2ccccc2)cs1 (centres unmarked) [6-L10] 101%

----------
Form field: viability at 48 h, 25 µM (one value per entry).
- Assay overview: in vitro
- Assay conditions: human, hek293t cells
Write the value in % as a bare number.

Known results for molecules:
C=CC(=O)Nc1cnoc1C(C)C ... 92.6
COC(=O)c1ccccc1NC(=O)CCl [5-B12, methyl 2-(2-chloroacetamido)benzoate] ... 77.7
CC(Cl)C(=O)N(Cc1ccccc1)Cc1ccccc1 (centres unmarked) [5-K19, N,N-dibenzyl-2-chloropropanamide] ... 82.1
C=CC(=O)NCC1(c2nc(-c3ccccc3)cs2)CCOCC1 ... 93.1

Now look at this one.
Query (molecule): C=CC(=O)N1CC[C@H](Oc2ccc(F)cc2)C1 ; field requested: viability at 48 h, 25 µM 185

----------
Property: viability at 48 h, 25 µM; scope: individual molecules
- Assay overview: in vitro
- Assay conditions: human, hek293t cells

Recorded viability at 48 h, 25 µM, per entry:
Cc1cc(Cl)ccc1CN1CCN(C(=O)C(C)Cl)CC1 (stereo not drawn) ... 94.8%
COc1ccc(C=C(C#N)C(=O)Nc2ccccc2Cl)cc1O ... 82.8%
O=C(CCl)N1CCSc2c([nH]c3ccccc23)C1 ... 1.68%
C=CC(=O)NCc1nnnn1-c1ccc(F)cc1 ... 106%
Cc1cc(C(=O)CCl)c(C)n1CCc1ccc(F)cc1 ... 0.499%
C=CC(=O)Nc1cnc(S(C)(=O)=O)c(C)c1 ... 99.6%
O=C(CCl)N1N=C(c2ccco2)CC1c1cccc(Cl)c1 (stereo not drawn) ... 0.403%
C=CC(=O)N(C)CC(=O)N1CCc2ccc(S(C)(=O)=O)cc2CC1 ... 95.1%

Item under review: C=CC(=O)Nc1ccc(C)cc1S(=O)(=O)N1CCOCC1 . Reported viability at 48 h, 25 µM? 74.9%

Fill blank: measured viability at 48 h, 25 µM of the molecule CC1CCN(C(=O)CCl)c2cc(Cl)ccc2S1 (stereo not drawn) is ____. 0.484%

Sample N#CC(=Cc1ccc(Sc2ccccc2)o1)C(=O)Nc1ccccc1 — what was its viability at 48 h, 25 µM? 70%

Looking for the measured viability at 48 h, 25 µM of C=CC(=O)N1CCOC(Cn2cncn2)C1 (stereo not drawn) , can you help? 85.3%

Please give the measured viability at 48 h, 25 µM for this molecule: CC(NC(=O)c1ccccc1NC(=O)CCl)c1ccccc1 (stereo not drawn) 0.478%

Entry O=C(CCl)NC1CCC2(CCC1(F)F)OCCO2 (stereo not drawn) has what viability at 48 h, 25 µM? 5.9%

Which viability at 48 h, 25 µM is reported for this molecule? CC(C)NC(=O)C(C#N)=Cc1ccc(C(F)(F)F)cc1 37.8%

----------
- Assay overview: in vitro
- Assay conditions: human, hek293t cells
Test readout: viability at 48 h, 25 µM
Don't forget the unit after the number, please.

N#CC(=Cc1ccc2c(c1)OCCO2)C(=O)Nc1nccs1 [8-B03] ... 115%

Sample C=CCNC(=O)C(C#N)=Cc1ccc(OC)c(O)c1 [8-E21] — what was its viability at 48 h, 25 µM? 75.7%

Data request, read-out viability at 48 h, 25 µM, for N#CC(=Cc1ccccc1OC(F)F)C(=O)Nc1ccccc1Cl [9-M21] 119%

Query (compound): C=CC(=O)Nc1cc(NC(=O)C2(OC)CCOC2)ccc1F (stereo not shown) [3-D05] ; field requested: viability at 48 h, 25 µM 75.8%
